meta.source: patent US6737383B1

Attribute: B. signalgrass plant response rating
# Tested on: surinam grass
# run_description: Test B pre/postemergence surinam grass
# Type: in vivo, Brachiaria decumbens
# setup_conditions: Preemergence, Rate 500 g/ha; scale 0 to 10, 0 is no effect, 10 is complete control
# Description: […] At the same time, these crop and weed species were also treated with postemergence applications of test chemicals formulated in the same manner. […] Treated plants and controls were maintained in a greenhouse for twelve to sixteen days, after which all species were compared to controls and visually evaluated. […]
// response body must contain only the number

Before answering, review these 5 worked examples.
CC(C)N(C(=O)n1oc(=O)n(CCCCF)c1=O)c1ccc(F)cc1F :: 9
CC(C)N(C(=O)n1oc(=O)n(CC(=O)C2CC2)c1=O)c1ccccc1 :: 9
CC(C)N(C(=O)n1oc(=O)n(CC(=O)C2CC2)c1=O)c1ccc(F)cc1F :: 8
COC(=O)CCCn1c(=O)on(C(=O)N(c2ccc(F)cc2F)C(C)C)c1=O :: 9
CC(C)N(C(=O)n1oc(=O)n(CO)c1=O)c1ccc(F)cc1 :: 6

// next item, B. signalgrass plant response rating requested
[ask] Report B. signalgrass plant response rating under test system surinam grass for CC(C)N(C(=O)n1oc(=O)n(C(C)C(=O)c2ccccc2)c1=O)c1ccc(F)cc1F (stereo not drawn) .
[reply] 0

---

Attribute: Crabgrass plant response rating
# Test system: crabgrass
# run_description: Test B pre/postemergence crabgrass
# Type: in vivo, Digitaria sanguinalis
# setup_conditions: Rate 62 g/ha, Preemergence; scale 0 to 10
// response body must contain only the number

Cc1nc(C(C)n2c(=O)on(C(=O)N(c3ccc(F)cc3)C(C)C)c2=O)sc1C (centres unmarked) [Compound 757] :: 6

[ask] Report Crabgrass plant response rating under test system crabgrass for CON=CC(C)n1c(=O)on(C(=O)N(c2ccccc2)C(C)C)c1=O (centres unmarked) [Compound 790] .
[reply] 10

[ask] Report Crabgrass plant response rating under test system crabgrass for CCOC(CC)n1c(=O)on(C(=O)N(c2ccc(F)cc2)C(C)C)c1=O (centres unmarked) [Compound 742] .
[reply] 0

[ask] Report Crabgrass plant response rating under test system crabgrass for CC(C)N(C(=O)n1oc(=O)n(CCCCCl)c1=O)c1ccccc1 [Compound 792] .
[reply] 10

[ask] Report Crabgrass plant response rating under test system crabgrass for CC(C)N(C(=O)n1oc(=O)n(C[C@H](C)Cl)c1=O)c1ccc(Cl)cc1 [Compound 748] .
[reply] 9

---

# System: rape
# run_description: Test B pre/postemergence rape
# Format: in vivo, Brassica napus
# setup_conditions: Postemergence, Rate 250 g/ha; scale of 0 to 10, 0 is no effect, 10 is complete control
# Description: […] At the same time, these crop and weed species were also treated with postemergence applications of test chemicals formulated in the same manner. […] Treated plants and controls were maintained in a greenhouse for twelve to sixteen days, after which all species were compared to controls and visually evaluated. […]
readout_kind: Rape plant response rating
// response body must contain only the number

[ask] Answer with the recorded Rape plant response rating of `COCCn1c(=O)on(C(=O)N(c2ccc(F)cc2)C(C)C)c1=O` only.
[reply] 0

[ask] Answer with the recorded Rape plant response rating of CCC(C)n1c(=O)on(C(=O)N(c2ccccc2)C(C)C)c1=O (centres unmarked) only.
[reply] 2

[ask] Answer with the recorded Rape plant response rating of `CC(C)N(C(=O)n1oc(=O)n(CC(=O)N(C)C)c1=O)c1ccccc1` only.
[reply] 0

[ask] Answer with the recorded Rape plant response rating of `C=C(Cn1c(=O)on(C(=O)N(c2ccccc2)C(C)C)c1=O)c1cccc(Cl)n1` only.
[reply] 0

[ask] Answer with the recorded Rape plant response rating of `COCCn1c(=O)on(C(=O)N(c2ccc(F)cc2F)C(C)C)c1=O` only.
[reply] 3

---

# Test system: soybean
# run_description: Test B pre/postemergence soybean
# Format: in vivo, Glycine max
# setup_conditions: Rate 1000 g/ha, Preemergence; scale 0 to 10 (0 no effect, 10 complete control)
readout_kind: Plant response rating, Soybean
// response body must contain only the number

Before answering, review these 4 worked examples.
COC(=O)C(c1ccccc1)n1c(=O)on(C(=O)N(c2ccccc2)C(C)C)c1=O (centres unmarked) :: 0
CCOP(=O)(Cn1c(=O)on(C(=O)N(c2ccc(Cl)cc2)C(C)C)c1=O)OCC :: 0
COP(=O)(CCn1c(=O)on(C(=O)N(c2ccc(Cl)cc2)C(C)C)c1=O)OC :: 3
COC(=O)C(CCO)n1c(=O)on(C(=O)N(c2ccc(F)cc2)C(C)C)c1=O (centres unmarked) :: 0

[ask] Answer with the recorded Plant response rating, Soybean of CCOC(=O)C(C)N(C(=O)n1oc(=O)n(C2CCCCC2)c1=O)c1ccc(F)cc1 (centres unmarked) only.
[reply] 0

---

# Test system: wild oat
# run_description: Test B pre/postemergence wild oat
# Type: in vivo, Avena fatua
# setup_conditions: Postemergence, Rate 62 g/ha; scale of 0 to 10, 0 is no effect, 10 is complete control
# Procedure: […] At the same time, these crop and weed species were also treated with postemergence applications of test chemicals formulated in the same manner. […] Treated plants and controls were maintained in a greenhouse for twelve to sixteen days, after which all species were compared to controls and visually evaluated. […]
readout_kind: Wild oats plant response rating
// response body must contain only the number

Before answering, review these 3 worked examples.
CC(C)N(C(=O)n1oc(=O)n(CCCC(F)(F)F)c1=O)c1ccc(F)cc1F :: 0
C=CCCCn1c(=O)on(C(=O)N(c2ccc(Cl)cc2)C(C)C)c1=O :: 0
CC(C)N(C(=O)n1oc(=O)n(CCCF)c1=O)c1ccccc1 :: 2

[ask] Answer with the recorded Wild oats plant response rating of `CC(C)N(C(=O)n1oc(=O)n(CCC2OCCCO2)c1=O)c1ccccc1` only.
[reply] 0

[ask] Answer with the recorded Wild oats plant response rating of `COC(=O)CCCn1c(=O)on(C(=O)N(c2ccc(F)cc2F)C(C)C)c1=O` only.
[reply] 0

[ask] Answer with the recorded Wild oats plant response rating of CC(C)N(C(=O)n1oc(=O)n(C(C)C(=O)c2ccccc2)c1=O)c1ccc(F)cc1F (stereo not drawn) only.
[reply] 0

---

Attribute: Plant response rating Large crabgrass
# Test system: large crabgrass
# run_description: Test D large crabgrass
# Assay type: in vivo, Digitaria sanguinalis
# setup_conditions: Rate 32 g/ha; Preemergence; 0 to 100 scale, 0 no injury, 100 complete control
// response body must contain only the number

[ask] Answer with the recorded Plant response rating Large crabgrass of `CC(C)N(C(=O)n1oc(=O)n(C2CCCCC2)c1=O)c1ccc(F)cc1F` only.
[reply] 75

[ask] Answer with the recorded Plant response rating Large crabgrass of `C=CCn1c(=O)on(C(=O)N(c2ccc(F)cc2F)C(C)C)c1=O` only.
[reply] 98

[ask] Answer with the recorded Plant response rating Large crabgrass of `CC(C)N(C(=O)n1oc(=O)n(C(C)C)c1=O)c1ccc(F)cc1` only.
[reply] 100

[ask] Answer with the recorded Plant response rating Large crabgrass of `Cc1cccc(C)c1-n1c(=O)on(C(=O)N(c2ccc(F)cc2)C(C)C)c1=O` only.
[reply] 0

---

# Test system: wild oat
# run_description: Test B pre/postemergence wild oat
# Type: in vivo, Avena fatua
# setup_conditions: Preemergence, Rate 62 g/ha; scale of 0 to 10 where 0 is no effect and 10 is complete control
readout_kind: Wild oats plant response rating
// response body must contain only the number

Before answering, review these 8 worked examples.
COC(Cn1c(=O)on(C(=O)N(c2ccc(F)cc2)C(C)C)c1=O)OC [Compound 317] :: 5
CC(C)N(C(=O)n1oc(=O)n(C(C)C(=S)N(C)C)c1=O)c1ccccc1 (stereo not shown) [Compound 704] :: 0
CC(C)N(C(=O)n1oc(=O)n(-c2ccc3ccccc3c2)c1=O)c1ccc(Cl)cc1 [Compound 333] :: 0
CSc1ccc(N(C(=O)n2oc(=O)n(-c3ccccc3C)c2=O)C(C)C)cc1 [Compound 205] :: 0
CC(=O)Cn1c(=O)on(C(=O)N(c2ccc(F)cc2)C(C)C)c1=O [Compound 217] :: 0
C#CC(C)n1c(=O)on(C(=O)N(c2ccc(Cl)cc2)C(C)C)c1=O (racemic) [Compound 658] :: 0
C#CCn1c(=O)on(C(=O)N(c2ccc(F)cc2)C(C)C)c1=O [Compound 212] :: 0
C=C(Cc1ccccc1)Cn1c(=O)on(C(=O)N(c2ccccc2)C(C)C)c1=O [Compound 650] :: 0

[ask] Report Wild oats plant response rating under test system wild oat for CC(C)N(C(=O)n1oc(=O)n(C(C)C2CCC2)c1=O)c1ccc(F)cc1 (stereo not shown) [Compound 718] .
[reply] 2

[ask] Report Wild oats plant response rating under test system wild oat for CCc1cccc(C)c1-n1c(=O)on(C(=O)N(c2ccc(F)cc2)C(C)C)c1=O [Compound 201] .
[reply] 0

[ask] Report Wild oats plant response rating under test system wild oat for CC(C)N(C(=O)n1oc(=O)n(C2CCOCC2)c1=O)c1ccc(F)cc1 [Compound 310] .
[reply] 8

[ask] Report Wild oats plant response rating under test system wild oat for CC[C@H](C)n1c(=O)on(C(=O)N(c2ccc(Cl)cc2)C(C)C)c1=O [Compound 664] .
[reply] 0

[ask] Report Wild oats plant response rating under test system wild oat for CC(C)N(C(=O)n1oc(=O)n(CC(F)F)c1=O)c1ccc(F)cc1 [Compound 710] .
[reply] 8
